Listed next: entries and their corresponding Binding affinity (RU).
study_target: acetylcholine receptor
run_description: SPR, receptor on CM5 chip, peptide 10 µM
// units = RU; emit number, no label

Worked cases, answers included:
| binder | Binding affinity (RU) |
| --- | --- |
| RKGRRK [6mer-1-487] | 121 |
| KKGLCK [6mer-1-517] | 139 |
| RRRFTR [6mer-1-505] | 148 |
| RKQIRR [6mer-1-513] | 154 |
| RRVYQR [6mer-1-496] | 148 |

Entry RKVRCK [6mer-1-116] needs its Binding affinity (RU) filled in; supply it. 139

Entry RRWQLR [6mer-1-81] needs its Binding affinity (RU) filled in; supply it. 148

Entry RKVICR [6mer-1-111] needs its Binding affinity (RU) filled in; supply it. 144

Entry RKRICK [6mer-1-103] needs its Binding affinity (RU) filled in; supply it. 122

Taken from patent US20250011363A1.
